Listing: Aphis craccivora Mortality (%) of selected molecules
- Tested on: Aphis craccivora
- assayName: whole plant or invertebrate
- Format: in vivo
- measurementParameters: 500 ppm; wingless adults, immersion 5 seconds, counted after 24 hours
Return type: number; implicit unit %.

Worked set:
- molecule: "CCOC(=O)C1(CC(=O)OC)Nc2c([S+]([O-])C(F)(F)F)c(C#N)nn2-c2cncc(Cl)c21 (stereo not shown)"
  unitTag: "%"
  Aphis craccivora Mortality (%): 100
- molecule: "COC(=O)C1(CC(F)(F)F)Nc2c([S+]([O-])C(F)(F)F)c(C#N)nn2-c2c(Cl)cc(C(F)(F)F)cc21 (stereo not shown)"
  unitTag: "%"
  Aphis craccivora Mortality (%): 100
- molecule: "N#Cc1nn2c(c1[S+]([O-])C(F)(F)F)NC(CC(F)(F)F)(C(F)(F)F)c1cc(C(F)(F)F)cc(Cl)c1-2 (stereo not shown)"
  unitTag: "%"
  Aphis craccivora Mortality (%): 100
- molecule: "N#Cc1nn2c(c1[S+]([O-])C(F)(F)F)NC(Cl)c1cc(C(F)(F)F)cc(Cl)c1-2 (stereo not shown)"
  unitTag: "%"
  Aphis craccivora Mortality (%): 90
- molecule: "N#Cc1nn2c(c1[S+]([O-])C(F)(F)F)NC(CC(=O)C(F)(F)F)c1c(Cl)cncc1-2 (stereo not shown)"
  unitTag: "%"
  Aphis craccivora Mortality (%): 100
- molecule: "COC(=O)CC1(C(=O)C(F)(F)F)Nc2c([S+]([O-])C(F)(F)F)c(C#N)nn2-c2cncc(Cl)c21 (stereo not shown)"
  unitTag: "%"
  Aphis craccivora Mortality (%): 100
- molecule: "COC(=O)CC1(C(=O)C(F)(F)F)Nc2c([S+]([O-])C(F)(F)F)c(C#N)nn2-c2c(Cl)cc(C(F)(F)F)cc21 (stereo not shown)"
  unitTag: "%"
  Aphis craccivora Mortality (%): 100
- molecule: "N#CCC1(Cl)Nc2c([S+]([O-])C(F)(F)F)c(C#N)nn2-c2cncc(Cl)c21 (stereo not shown)"
  unitTag: "%"
  Aphis craccivora Mortality (%): 100
- molecule: "CC(C)C1Nc2c(OC(F)(F)F)c(C#N)nn2-c2cncc(Cl)c21 (stereo not shown)"
  unitTag: "%"
  Aphis craccivora Mortality (%): 100

Then this molecule:
Request: What does the record list as Aphis craccivora Mortality (%) for COC(=O)CC1(C(=O)OC)Nc2c([S+]([O-])C(F)(F)F)c(CN)nn2-c2c(Cl)cc(C(F)(F)F)cc21 (stereo not shown) ?
Response: 96

====

# Lookup of reported Plutella xylostella Mortality (%) keyed by entry
- Tested on: Plutella xylostella
- assayName: whole plant or invertebrate
- Type: in vivo
- measurementParameters: 500 ppm; 2nd-instar larvae, leaf immersion feeding
- Excerpt: (1) Insecticidal Activity on 2nd-Instar Larvae of Plutella xylostella. Plutella xylostella (L.) is a lepidoptera pest with a chewing mouthpart and is a common vegetable pest. The 2nd-instar larvae of Plutella xylostella were used as test objects and tested by using a leaf immersion feeding method. […]
State just the number; it will be interpreted in %.

- compound: "N#CCC1(C(=O)C(F)(F)F)Nc2c([S+]([O-])C(F)(F)F)c(C#N)nn2-c2cncc(Cl)c21 (centres unmarked) [b-30]"
  targetOrSystem: "Plutella xylostella"
  Plutella xylostella Mortality (%): 90
- compound: "N#Cc1nn2c(c1[S+]([O-])C(F)(F)F)NC(C#N)c1cc(C(F)(F)F)cc(Cl)c1-2 (stereo not drawn) [d-82]"
  targetOrSystem: "Plutella xylostella"
  Plutella xylostella Mortality (%): 95
- compound: "CNC(=O)CC1Nc2c(OC(F)(F)F)c(C#N)nn2-c2c(Cl)cc(C(F)(F)F)cc21 (stereo not drawn) [d-133]"
  targetOrSystem: "Plutella xylostella"
  Plutella xylostella Mortality (%): 70
- compound: "[O-][S+](c1c(C(F)(F)F)nn2c1NC(C(F)(F)F)c1cc(C(F)(F)F)cc(Cl)c1-2)C(F)(F)F (stereo not drawn) [d-107]"
  targetOrSystem: "Plutella xylostella"
  Plutella xylostella Mortality (%): 100
- compound: "COC(=O)CC1Nc2c([S+]([O-])C(F)(F)F)c(C(F)(F)F)nn2-c2c(Cl)cc(C(F)(F)F)cc21 (stereo not drawn) [d-98]"
  targetOrSystem: "Plutella xylostella"
  Plutella xylostella Mortality (%): 100
- compound: "N#Cc1nn2c(c1[S+]([O-])C(F)(F)F)NC(CC(=O)C(F)(F)F)(C(=O)C(F)(F)F)c1c(Cl)cncc1-2 (centres unmarked) [b-25]"
  targetOrSystem: "Plutella xylostella"
  Plutella xylostella Mortality (%): 100
- compound: "COC(=O)CC1(C(=O)OC)Nc2c([S+]([O-])C(F)(F)F)c(CN)nn2-c2c(Cl)cc(C(F)(F)F)cc21 (stereo not drawn) [d-9]"
  targetOrSystem: "Plutella xylostella"
  Plutella xylostella Mortality (%): 82
- compound: "COC(=O)C1(CC(=O)OCC(F)F)Nc2c([S+]([O-])C(F)(F)F)c(C#N)nn2-c2cc(C(F)(F)F)cc(Cl)c21 (centres unmarked) [c-20]"
  targetOrSystem: "Plutella xylostella"
  Plutella xylostella Mortality (%): 100

Request: Short answer please: Plutella xylostella Mortality (%), Plutella xylostella, entry N#Cc1nn2c(c1[S+]([O-])C(F)(F)F)NC(Cl)c1cc(C(F)(F)F)cc(Cl)c1-2 (stereo not drawn) [d-90]
Response: 82

Request: Please tell me: Plutella xylostella Mortality (%) of N#Cc1nn2c(c1[S+]([O-])C(F)(F)F)NC(CC(F)(F)F)c1cc(C(F)(F)F)cc(Cl)c1-2 (stereo not drawn) [d-85] , system Plutella xylostella?
Response: 100

Request: Which measured Plutella xylostella Mortality (%) belongs to N#Cc1nn2c(c1[S+]([O-])C(F)(F)F)NC(C#N)(CC(F)(F)F)c1cc(C(F)(F)F)cc(Cl)c1-2 (stereo not drawn) [d-65] , tested on Plutella xylostella?
Response: 100

====

We begin with a simple list: items and their reported Plutella xylostella Mortality (%) 500 ppm.
- Tested on: Plutella xylostella
- assayName: whole plant or invertebrate
- Assay type: in vivo
- measurementParameters: 500 ppm; 2nd-instar larvae, leaf immersion feeding
Form entry: value (%) — number only.

Here are 6 molecules together with their reported answers.
- molecule: "N#CCC1(C(F)(F)F)Nc2c([S+]([O-])C(F)(F)F)c(C#N)nn2-c2ncc(C(F)(F)F)cc21 (centres unmarked)"
  valueReported: 96
- molecule: "CC=CC1Nc2c([S+]([O-])C(F)(F)F)c(C(F)(F)F)nn2-c2ncc(C(F)(F)F)cc21 (centres unmarked)"
  valueReported: 95
- molecule: "CC1(C)Nc2c([S+]([O-])C(F)(F)F)c(C#N)nn2-c2ncc(C(F)(F)F)cc21 (centres unmarked)"
  valueReported: 91
- molecule: "N#Cc1nn2c(c1[S+]([O-])C(F)(F)F)NC(C(=O)C(F)(F)F)c1cc(C(F)(F)F)cnc1-2 (centres unmarked)"
  valueReported: 100
- molecule: "N#Cc1nn2c(c1[S+]([O-])C(F)(F)F)NC(Cl)c1cc(C(F)(F)F)cnc1-2 (centres unmarked)"
  valueReported: 91
- molecule: "COC(=O)CC1Nc2c([S+]([O-])C(F)(F)F)c(C#N)nn2-c2ncc(C(F)(F)F)cc21 (centres unmarked)"
  valueReported: 100

Request: Param readout= Plutella xylostella Mortality (%) 500 ppm; system= Plutella xylostella; entry= N#Cc1nn2c(c1[S+]([O-])C(F)(F)F)NC(C#N)c1cc(C(F)(F)F)cnc1-2 (centres unmarked) ; returns value.
Response: 96

Request: Notebook entry, Plutella xylostella assay: Plutella xylostella Mortality (%) 500 ppm of COC(=O)C1Nc2c([S+]([O-])C(F)(F)F)c(C#N)nn2-c2ncc(C(F)(F)F)cc21 (centres unmarked) = ?
Response: 100

Request: What measured Plutella xylostella Mortality (%) 500 ppm is associated with N#CCC1(C(=O)C(F)(F)F)Nc2c([S+]([O-])C(F)(F)F)c(C#N)nn2-c2ncc(C(F)(F)F)cc21 (centres unmarked) on Plutella xylostella?
Response: 96

Request: Write down the reported Plutella xylostella Mortality (%) 500 ppm of CC(=O)C1(CC(F)(F)F)Nc2c([S+]([O-])C(F)(F)F)c(C#N)nn2-c2ncc(C(F)(F)F)cc21 (centres unmarked) , test system: Plutella xylostella.
Response: 100

Request: What Plutella xylostella Mortality (%) 500 ppm appears in the records for this molecule with Plutella xylostella? N#Cc1nn2c(c1[S+]([O-])C(F)(F)F)NC(Cc1ccccc1)(C(=O)C(F)(F)F)c1cc(C(F)(F)F)cnc1-2 (centres unmarked)
Response: 100

Request: Requested read-out Plutella xylostella Mortality (%) 500 ppm, target or system Plutella xylostella, entry N#Cc1nn2c(c1[S+]([O-])C(F)(F)F)NC(CC(=O)C(F)(F)F)(C(F)(F)F)c1cc(C(F)(F)F)cnc1-2 (centres unmarked)
Response: 100

Request: Please tell me: Plutella xylostella Mortality (%) 500 ppm of COC(=O)CC1(C(F)(F)F)Nc2c([S+]([O-])C(F)(F)F)c(C#N)nn2-c2ncc(C(F)(F)F)cc21 (centres unmarked) , system Plutella xylostella?
Response: 100

Request: Short answer please: Plutella xylostella Mortality (%) 500 ppm, Plutella xylostella, entry COC(=O)CC1Nc2c([S+]([O-])C(F)(F)F)c(C(F)(F)F)nn2-c2ncc(C(F)(F)F)cc21 (centres unmarked)
Response: 100
